testDescription: DNDI: Cytotoxicity against L-6 rat myoblasts from skeletal muscle cells
measurementConditions: L6 rat skeletal muscle myoblast cells, IC50
pIC50: −log10 of the molar value.
measuredMetric: pIC50

* CC(C)Oc1ccc(C(O)(c2ccc(Cl)cc2)c2cncnc2)cn1 (stereo not given) | 4.07
* O=C(NC1CCCCC1)NC1CCN(C(c2ccc(Cl)cc2)c2cccnc2)CC1 (stereo not given) | 4.07
* Cc1noc(C)c1C(=O)N1CCC(CN(c2ccc(C(F)(F)F)cc2)c2cccnc2)CC1 | 4.14
* O=C(OCc1ccccc1)N1CCN(C(c2cccnc2)c2ccc(Cl)cc2F)CC1 (stereo not given) | 4.22
* Cc1ncsc1C(=O)NC1CCN(C(c2ccc(C(F)(F)F)cc2)c2cccnc2)CC1 (stereo not given) | 4.22

###

Listed here: items and their measured pIC50.
Test system: Trypanosoma cruzi
testDescription: microbe, parasite or virus in culture
Type: functional, organism-based, Tulahuen LacZ, Clone C4
pIC50: −log10 of the molar value.
measuredMetric: pIC50

• CC(C)(C)NC(=O)N1CCC(NC(c2ccc(C(F)(F)F)cc2)c2cccnc2)CC1 (stereo not given) = 7.21
• CS(=O)(=O)N1CCN(C(c2cncnc2)c2ccc(Cl)cc2F)CC1 (stereo not given) = 6.41
• O=C(NC1CCN(C(c2ccc(C(F)(F)F)cc2)c2cccnc2)CC1)c1c(F)cccc1F (stereo not given) = 8.07
• OC(c1ccc(Cl)cc1)(c1cccnc1)c1ccccc1F (stereo not given) = 7.46
• Cc1noc(C)c1C(=O)N1CCC(NC(c2ccc(C(F)(F)F)cc2)c2cccnc2)CC1 (stereo not given) = 7.44
• OC(c1ccc(Cl)cc1)(c1cccnc1)c1ccccc1Cl (stereo not given) = 6.68
• CC(C)C(=O)N1CCN(C(c2ccc(Cl)cc2)c2cncnc2)CC1 (stereo not given) = 6.17
• O=C(NC1CCN(C(c2ccc(C(F)(F)F)cc2)c2cnccn2)CC1)C1CC1 (stereo not given) = 6.24
• N#Cc1cccc(OC2CCN(C(c3ccc(C(F)(F)F)cc3)c3cccnc3)CC2)c1 (stereo not given) = 8.08
• FC(F)(F)c1ccc(N2CCC(NC(c3ccc(Cl)cc3)c3cccnc3)CC2)cn1 (stereo not given) = 8.18

###

Listed here: items and their measured pIC50.
testDescription: DNDI: Cytotoxicity against L-6 rat myoblasts from skeletal muscle cells
measurementConditions: L6 rat skeletal muscle myoblast cells
pIC50: −log10 of the molar value.
measuredMetric: pIC50

* Fc1ccccc1C(c1ccc(C(F)(F)F)cc1)c1cccnc1 (stereo not drawn) | 4.19
* CNC1=C(c2cccc(C(F)(F)F)c2)C(=O)C(c2ccccc2)O1 (stereo not drawn) | 4.08
* O=C(Cc1ccccc1)N1CCN(C(c2ccc(Cl)cc2)c2cncnc2)CC1 (stereo not drawn) | 4.16
* OC(c1ccc(Cl)cc1)(c1cccnc1)c1ccc(Cl)cc1Cl (stereo not drawn) | 4.27
* Cc1ccccc1C(O)(c1ccc(Cl)cc1)c1cccnc1 (stereo not drawn) | 4.21
* CC(C)Oc1ccc(C(O)(c2cccnc2)c2ccccc2F)cc1 (stereo not drawn) | 4.13
* CO/C=C(/C(=O)OC)c1ccccc1Oc1cc(Oc2ccccc2C#N)ncn1 | 4.30
* COC(=O)N(OC)c1ccccc1COc1ccn(-c2ccc(Cl)cc2)n1 | 4.36
* CC(C)Oc1ccc(C(O)(c2ccc(Cl)cc2)c2cccnc2)cc1 (stereo not drawn) | 4.28
* Oc1cc(Cl)ccc1Oc1ccc(Cl)cc1Cl | 4.08

###

Listed here: items and their measured IC50.
testDescription: DNDI: Cytotoxicity against L-6 rat myoblasts from skeletal muscle cells
measurementConditions: L6 rat skeletal muscle myoblast cells, IC50
measuredMetric: IC50 (µM)

- O=C(OCc1ccccc1)N1CCN(C(c2ccc(Cl)cc2)c2cccnc2)CC1 (stereo not given): 51.6
- CC(C)(C)OC(=O)N1CCC(CNC(c2ccc(C(F)(F)F)cc2)c2cnccn2)CC1 (stereo not given): 73.3

###

Listed here: items and their measured pIC50.
testDescription: DNDI: Cytotoxicity against L-6 rat myoblasts from skeletal muscle cells
measurementConditions: L6 rat skeletal muscle myoblast cells, IC50
pIC50: −log10 of the molar value.
measuredMetric: pIC50

- O=C(c1nccs1)N1CCC(NC(c2ccc(C(F)(F)F)cc2)c2cccnc2)CC1 (stereo unspecified): < 4.00
- O=C(C1CC1)N1CCC(NC(c2cnccn2)c2ccc(F)cc2F)CC1 (stereo unspecified): < 4.00
- Cc1cc(C(=O)NC2CCN(C(c3ccc(C#N)cc3)c3cccnc3)CC2)no1 (stereo unspecified): < 4.00
- N#Cc1ccc(C(c2cccnc2)N2CCN(C(=O)NC3CC3)CC2)cc1 (stereo unspecified): < 4.00
- N#Cc1ccc(C(c2cccnc2)N2CCC(NC(=O)c3c(F)cccc3F)CC2)cc1 (stereo unspecified): < 4.00
- CS(=O)(=O)NC1CCN(C(c2ccc(C(F)(F)F)cc2)c2cccnc2)CC1 (stereo unspecified): < 4.00
- CC(C)S(=O)(=O)N1CCC(NC(c2cnccn2)c2ccc(F)cc2F)CC1 (stereo unspecified): < 4.00
- COc1cncc(C(O)(c2ccc(C(F)(F)F)cc2)c2ccc(Cl)cc2F)c1 (stereo unspecified): 4.17
- NC(=O)c1cccc(N2CCC(NC(c3cccnc3)c3ccc(Cl)cc3F)CC2)c1 (stereo unspecified): < 4.00
- O=C(c1ccc(Cl)cc1)c1ccccc1Cl: < 4.00
- NC(=O)c1ccccc1N1CCC(NC(c2cccnc2)c2ccc(Cl)cc2F)CC1 (stereo unspecified): 4.14

###

testDescription: DNDI: Cytotoxicity against L-6 rat myoblasts from skeletal muscle cells
measurementConditions: L6 rat skeletal muscle myoblast cells, IC50
measuredMetric: IC50

* CCS(=O)(=O)N1CCC(NC(c2cnccn2)c2ccc(F)cc2F)CC1 (stereo not drawn) | > 100 µM
* CNC(=O)c1cccc(C(O)(c2ccc(Cl)cc2)c2cccnc2)c1 (stereo not drawn) | > 100 µM
* CN(C)C(=O)N1CCC(NC(c2ccc(C(F)(F)F)cc2)c2cnccn2)CC1 (stereo not drawn) | > 100 µM

###

Listed here: items and their measured IC50.
testDescription: DNDI: Cytotoxicity against L-6 rat myoblasts from skeletal muscle cells
measurementConditions: L6 rat skeletal muscle myoblast cells, IC50
measuredMetric: IC50

- O=C1NCCN1C1CCN(C(c2ccc(Cl)cc2)c2cccnc2)CC1 (stereo not drawn): 67.8 µM
- CO/N=C(\c1ccc(Cl)cc1)c1cccnc1: > 100 µM
- CS(=O)(=O)N1CCN(C(c2ccc(C(F)(F)F)cc2)c2cccnc2)CC1 (stereo not drawn): > 100 µM

###

testDescription: DNDI: Cytotoxicity against L-6 rat myoblasts from skeletal muscle cells
measurementConditions: L6 rat skeletal muscle myoblast cells, IC50
pIC50: −log10 of the molar value.
measuredMetric: pIC50

- O=S(=O)(NC1CCN(C(c2cnccn2)c2ccc(F)cc2F)CC1)c1ccc(Cl)cc1 (stereo not given): 4.46
- Cc1cc(C(=O)NC2CCN(C(c3ccc(C(F)(F)F)cc3)c3cccnc3)CC2)n(C(C)(C)C)n1 (stereo not given): < 4.00
- O=C(C1CC1)N1CCN(C(c2ccc(C(F)(F)F)cc2)c2cccnc2)CC1 (stereo not given): < 4.00
- O=C(NCC1CCCCC1)c1cccc(C(O)(c2ccc(Cl)cc2)c2cccnc2)c1 (stereo not given): < 4.00
- CN(C)CCOc1ncc(C(O)(c2ccc(Cl)cc2)c2cccnc2)cn1 (stereo not given): < 4.00
- Cc1nc(C(=O)N2CCC(NC(c3ccc(C(F)(F)F)cc3)c3cccnc3)CC2)co1 (stereo not given): < 4.00
- CCC(=O)NC1CCN(C(c2ccc(C(F)(F)F)cc2)c2cnccn2)CC1 (stereo not given): < 4.00
- CCNC(=O)N1CCN(C(c2cncnc2)c2ccc(Cl)cc2F)CC1 (stereo not given): < 4.00
- N#CC(c1ccc(Cl)cc1)N1CCN(c2ccccc2)CC1 (stereo not given): < 4.00
- Fc1cc(Cl)ccc1C(NC1CCN(c2ccccc2C(F)(F)F)CC1)c1cccnc1 (stereo not given): 4.24
- O=S(=O)(Cc1ccccc1)N1CCC(NC(c2cnccn2)c2ccc(F)cc2F)CC1 (stereo not given): < 4.00
- OC(c1ccc(Cl)cc1)(c1ncccn1)c1ccccc1Cl (stereo not given): < 4.00
- O=C(C1CCCCC1)N1CCC(NC(c2cnccn2)c2ccc(F)cc2F)CC1 (stereo not given): < 4.00
- O=C(NC1CCN(C(c2ccc(C(F)(F)F)cc2)c2cccnc2)CC1)C1CC1 (stereo not given): < 4.00
- CC(C)(O)CN1CCC(NC(c2ccc(Cl)cc2)c2cccnc2)CC1 (stereo not given): < 4.00
- CC(C)(C)CC(=O)NC1CCN(C(c2ccc(Cl)cc2)c2cccnc2)CC1 (stereo not given): < 4.00
- Cc1ccc(C(O)(c2ccc(Cl)cc2)c2cncnc2)cn1 (stereo not given): < 4.00
- Cc1cc(C(=O)N2CCC(NC(c3ccc(C(F)(F)F)cc3)c3cccnc3)CC2)n(C(C)(C)C)n1 (stereo not given): 4.14
- COc1ccc(C(O)(c2cncnc2)c2ccccc2Cl)cc1 (stereo not given): 4.15
- N#Cc1ccc(C(c2cccnc2)N2CCC(NC(=O)c3cscn3)CC2)cc1 (stereo not given): < 4.00
- O=S(=O)(c1ccccc1)N1CCC(NC(c2ccc(C(F)(F)F)cc2)c2cnccn2)CC1 (stereo not given): < 4.00
- CC(C)C(=O)N1CCN(C(c2cccnc2)c2ccc(Cl)cc2F)CC1 (stereo not given): < 4.00
- N#Cc1ccc(C(c2cccnc2)N2CCC(NC(=O)c3cc[nH]n3)CC2)cc1 (stereo not given): < 4.00
- CCC(=O)NC1CCN(C(c2cnccn2)c2ccc(F)cc2F)CC1 (stereo not given): < 4.00
- O=C(NC1CCN(C(c2cccnc2)c2ccc(Cl)cc2F)CC1)C1CC1 (stereo not given): < 4.00
- CC(C)(C)OC(=O)N1CCC(NC(c2ccc(C(F)(F)F)cc2)c2cncs2)CC1 (stereo not given): 4.21
- O=C(NC1CCCCC1)c1cccc(C(O)(c2ccc(Cl)cc2)c2cccnc2)c1 (stereo not given): 4.28
- CCN(CC)C(=O)NC1CCN(C(c2cncnc2)c2ccc(Cl)cc2F)CC1 (stereo not given): 4.24
- Cn1cc(C(=O)N2CCC(NC(c3ccc(C(F)(F)F)cc3)c3cccnc3)CC2)c(C(F)(F)F)n1 (stereo not given): 4.11
- Cc1ccc(C(O)(c2ccc(Cl)cc2)c2cccnc2)s1 (stereo not given): < 4.00
